# assayed-system: OR10G4 (Homo sapiens, UniProt Q8NGN3, K295Q)
# Construct: full-length ORF with N-terminal Rho tag, pCI, Hana3A cells with RTP1S; two clones with the same label
# Sequence (Q8NGN3 whole entry K295Q): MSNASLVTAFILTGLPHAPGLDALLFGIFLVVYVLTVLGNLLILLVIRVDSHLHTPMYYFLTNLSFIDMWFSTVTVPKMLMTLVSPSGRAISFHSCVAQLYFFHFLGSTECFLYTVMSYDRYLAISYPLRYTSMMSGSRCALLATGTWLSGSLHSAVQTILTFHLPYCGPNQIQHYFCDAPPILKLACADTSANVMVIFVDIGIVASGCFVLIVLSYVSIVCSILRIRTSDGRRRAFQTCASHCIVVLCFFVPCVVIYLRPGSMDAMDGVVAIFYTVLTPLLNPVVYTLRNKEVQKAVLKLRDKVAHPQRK
# assay-summary: CRE-luciferase cAMP reporter (Dual-Glo), Hana3A cells
measured-metric: EC50 (µM)
Report the figure in µM without appending any unit label.

Note to self: EC50 recorded for COc1cc(C=O)ccc1O was 10

###

# assayed-system: OR2J3 (Homo sapiens)
# Construct: full-length ORF with N-terminal Rho tag, pCI, Hana3A cells with RTP1S; four clones with the same label
# Sequence (O76001 whole entry): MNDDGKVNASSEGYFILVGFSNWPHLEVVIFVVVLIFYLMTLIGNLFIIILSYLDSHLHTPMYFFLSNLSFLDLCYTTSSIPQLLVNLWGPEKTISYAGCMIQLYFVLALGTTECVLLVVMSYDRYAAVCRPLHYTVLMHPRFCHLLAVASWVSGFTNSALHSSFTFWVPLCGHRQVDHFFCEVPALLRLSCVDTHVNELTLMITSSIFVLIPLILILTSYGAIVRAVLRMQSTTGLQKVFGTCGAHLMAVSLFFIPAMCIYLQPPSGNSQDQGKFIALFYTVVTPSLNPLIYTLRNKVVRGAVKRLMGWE
# assay-summary: CRE-luciferase cAMP reporter (Dual-Glo), Hana3A cells
measured-metric: pEC50
Recall that pEC50 is obtained by taking minus log10 of the concentration measured in molar.

Look over these answered cases.
CC/C=C\CCO [compound 1300, cis-3-hexen-1-ol]    5.00
CC(=O)OC/C=C(\C)CCC=C(C)C [compound 1316, geranyl acetate]    3.00

Let us examine a further case.
Note to self: pEC50 recorded for CCCCCOC(C)=O [compound 1078, n-amyl acetate] was 6.00

###

# assayed-system: OR2T1 (Homo sapiens)
# Construct: full-length ORF with N-terminal Rho tag, pCI, Hana3A cells with RTP1S; two clones with the same label
# Sequence (A0A126GWK9 1-318): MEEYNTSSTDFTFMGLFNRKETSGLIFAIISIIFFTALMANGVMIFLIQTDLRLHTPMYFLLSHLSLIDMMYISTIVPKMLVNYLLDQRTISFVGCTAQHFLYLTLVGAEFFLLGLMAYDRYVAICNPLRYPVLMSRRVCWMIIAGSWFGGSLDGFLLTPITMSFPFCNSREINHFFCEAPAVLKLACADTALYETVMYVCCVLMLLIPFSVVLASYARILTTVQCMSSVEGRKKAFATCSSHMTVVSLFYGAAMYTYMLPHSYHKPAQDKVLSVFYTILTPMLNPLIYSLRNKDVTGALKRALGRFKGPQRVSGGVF
# assay-summary: CRE-luciferase cAMP reporter (Dual-Glo), Hana3A cells
measured-metric: pEC50
Recall that pEC50 is obtained by taking minus log10 of the concentration measured in molar.

Note to self: pEC50 recorded for CCCC(=O)O [compound 1295, butyric acid] was 4.00

###

# assayed-system: OR56A4 (Homo sapiens, UniProt Q8NGH8)
# Construct: full-length ORF with N-terminal Rho tag, pCI, Hana3A cells with RTP1S
# Sequence (Q8NGH8 whole entry): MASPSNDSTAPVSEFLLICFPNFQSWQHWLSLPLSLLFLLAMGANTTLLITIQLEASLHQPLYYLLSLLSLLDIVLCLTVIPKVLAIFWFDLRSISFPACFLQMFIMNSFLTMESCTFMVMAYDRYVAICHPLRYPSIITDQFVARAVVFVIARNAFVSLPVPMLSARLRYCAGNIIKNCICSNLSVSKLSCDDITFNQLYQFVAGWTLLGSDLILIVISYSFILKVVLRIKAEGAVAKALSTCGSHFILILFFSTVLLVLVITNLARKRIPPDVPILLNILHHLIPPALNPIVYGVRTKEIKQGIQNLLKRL
# assay-summary: CRE-luciferase cAMP reporter (Dual-Glo), Hana3A cells
measured-metric: EC50 (nM)
Report the figure in nM without appending any unit label.

Note to self: EC50 recorded for CCCCCCCCCCC=O was 100

###

# assayed-system: OR2T1 (Homo sapiens, UniProt A0A126GWK9, I76V)
# Construct: full-length ORF with N-terminal Rho tag, pCI, Hana3A cells with RTP1S; two clones with the same label
# assay-summary: CRE-luciferase cAMP reporter (Dual-Glo), Hana3A cells
# Text: CRE-luciferase cAMP reporter (Dual-Glo), Hana3A cells on OR2T1
measured-metric: pEC50
Recall that pEC50 is obtained by taking minus log10 of the concentration measured in molar.

Note to self: pEC50 recorded for CCCC(=O)O was 4.00

###

# assayed-system: OR4F17 (Homo sapiens, UniProt Q8NGA8)
# Construct: full-length ORF with N-terminal Rho tag, pCI, Hana3A cells with RTP1S
# Sequence (Q8NGA8 whole entry): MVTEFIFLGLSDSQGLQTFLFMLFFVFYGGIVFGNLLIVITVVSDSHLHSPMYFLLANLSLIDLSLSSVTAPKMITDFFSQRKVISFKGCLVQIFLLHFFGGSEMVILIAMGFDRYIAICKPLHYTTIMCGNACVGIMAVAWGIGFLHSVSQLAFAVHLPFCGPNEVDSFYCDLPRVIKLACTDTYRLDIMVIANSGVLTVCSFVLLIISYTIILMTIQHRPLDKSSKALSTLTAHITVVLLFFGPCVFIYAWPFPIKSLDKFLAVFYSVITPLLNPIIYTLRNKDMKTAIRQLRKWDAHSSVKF
# assay-summary: CRE-luciferase cAMP reporter (Dual-Glo), Hana3A cells
# Assay type: cell-based
measured-metric: pEC50
Recall that pEC50 is obtained by taking minus log10 of the concentration measured in molar.

Note to self: pEC50 recorded for C[C@]12CCC(=O)C[C@@H]1CC[C@@H]1[C@@H]2CC[C@]2(C)C=CC[C@@H]12 was 3.00

Where do the numbers come from? From paper PMC4412152.
